tested on: redroot pigweed (Amaranthus retroflexus); assay: Test G Post-Emergence Protocol; assay type: in vivo; conditions: Amaranthus retroflexus, post-emergence, 312 h, 15.625 g ai/ha, evaluated after 13 days (100=total damage to plant; 0=no damage to plant), read-out: Pigweed, Redroot damage rating
readout-name: pest or weed control at 15.625 g/ha (%)
All answers are understood in %, so give the number only.

Guide cases for pest or weed control at 15.625 g/ha, answers given:
molecule | target-or-test-system | pest or weed control at 15.625 g/ha [%]
CN1C[C@H](c2ccc(C(F)F)cc2)[C@@H](C(=O)Nc2cnccc2C(F)(F)F)C1=O (racemic) [Compound 1743] | redroot pigweed (Amaranthus retroflexus) | 0
CN1C[C@@H](c2cc(Cl)cc(C(F)(F)F)c2)[C@H](C(=O)Nc2ccccc2F)C1=O (racemic) [Compound 1414] | redroot pigweed (Amaranthus retroflexus) | 10
Cc1c(NC(=O)[C@@H]2C(=O)N(C)C[C@H]2c2ccc(C(F)(F)F)cc2)ccc(F)c1F (racemic) [Compound 1502] | redroot pigweed (Amaranthus retroflexus) | 20

Specify reported pest or weed control at 15.625 g/ha for the molecule shown: CN1C[C@H](c2cccc(C(F)(F)F)c2)[C@@H](C(=O)Nc2cccc(F)n2)C1=O (racemic) [Compound 1671]
10

Specify reported pest or weed control at 15.625 g/ha for the molecule shown: Cc1c(F)cccc1NC(=O)[C@@H]1C(=O)N(C)C[C@H]1c1ccc2nonc2c1 (racemic) [Compound 1818]
0

Specify reported pest or weed control at 15.625 g/ha for the molecule shown: CN1CC(c2ccc(F)c(OCC(F)(F)F)c2)C(C(=O)Nc2cccc(F)c2F)C1=O (stereo not shown) [Compound 1718]
30

Specify reported pest or weed control at 15.625 g/ha for the molecule shown: Cc1ccc(NC(=O)[C@@H]2C(=O)N(C)C[C@H]2c2ccc(C(F)(F)F)cc2)nn1 (racemic) [Compound 1543]
0
